# reported pKd; entries follow
# experimental_target: T1, PUF4 RNA-binding domain (Saccharomyces cerevisiae, UniProt P25339 537-888)
# T1 sequence: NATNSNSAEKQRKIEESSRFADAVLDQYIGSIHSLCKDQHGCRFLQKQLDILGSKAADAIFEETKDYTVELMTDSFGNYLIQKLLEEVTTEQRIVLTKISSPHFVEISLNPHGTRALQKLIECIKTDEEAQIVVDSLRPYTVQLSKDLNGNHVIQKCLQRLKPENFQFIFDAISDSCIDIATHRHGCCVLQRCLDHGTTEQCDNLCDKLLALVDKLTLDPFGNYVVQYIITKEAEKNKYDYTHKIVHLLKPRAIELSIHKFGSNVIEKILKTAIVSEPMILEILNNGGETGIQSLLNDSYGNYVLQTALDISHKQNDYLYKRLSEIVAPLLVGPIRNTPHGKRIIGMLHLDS
# test_name: Mg; RNA-MaP; 20 mM Na-HEPES pH 7.4, 30 mM KOAc, 0.75 mM MgCl2, 0.1% Tween-20, 5% glycerol, 0.1 mg/mL BSA, 2 mM DTT; 25 C; 0.0125-409.6 nM protein
# measurement_context: tags: N-His6-TEV cleaved; C-SNAP kept, Cy3B-labelled; label: tethered on chip by stalled RNA polymerase
The quantity pKd is defined as the negative base-10 logarithm of the molar concentration.

Known pKd results, listed for orientation:
Q) Item UCUCUUUGUAUUCCCAUCUCUU (ssRNA) [Ic_S1_P5E.1_K5.1_C5.1_H5.1_A5.1_[A7C]_F5.1_[T8C]_[T9C]_T5.1] has what recorded pKd?
A) 6.23

Q) Item Ic_S2_P5E.1_K5.1_C5.1_H5.1_A5.1_[T5C]_[T6A]_[A7G]_F5.1_[A10G]_T5.1 (ssRNA) RNA: UUUGAUUAAUAUGAUAUCGUUCUUUCUUGUACAGUUGUUCUUUCUCGAUAUCAUAUUAAUCUUU has what recorded pKd?
A) 8.03

API: the following record is the query input.
Q) Item Ic_S2_P4E.1_K4.1_C4.1_H4.1_A4.1_[A6C]_[T7A]_F4.1_[T8C]_[A9G]_T4.1 (ssRNA) RNA: UUUGAUUAAUAUGAUAUCGUUCUUUCUUGUAUCACGUUCUUUCUCGAUAUCAUAUUAAUCUUU has what recorded pKd?
A) 6.64
